Kindly state TGI for each of the entries shown.
- Test system: NCI-H460 lung
- protocol-details: NCI tumour cell line growth inhibition, 48 h

Prompt line: Observed TGI on NCI-H460 lung for CCOC(=O)C[C@@H]1C2(C=C[C@@]13CO3)OCC(C)(C)CO2 , please.
Response line: > 100 µM

Prompt line: Observed TGI on NCI-H460 lung for CCCCCCCC(=O)NCC(O)CNC(=O)CCCCCCC , please.
Response line: > 100 µM

Prompt line: Observed TGI on NCI-H460 lung for C#CCn1ncc2c(SC)ncnc21 , please.
Response line: > 100 µM

Prompt line: Observed TGI on NCI-H460 lung for N#CCCN(c1ccc(/C=C2\N=C(Cc3ccccc3)OC2=O)cc1)S(=O)(=O)c1ccccc1 , please.
Response line: > 100 µM

Prompt line: Observed TGI on NCI-H460 lung for CCCCOc1ccc(NC(=O)n2nc(N)c3ccccc32)cc1 , please.
Response line: 31.2 µM

Prompt line: Observed TGI on NCI-H460 lung for CC1=NNC(=O)C1C1CC(c2c[nH]c3ccccc23)=NNC1=S (configuration not stated) , please.
Response line: > 100 µM

Prompt line: Observed TGI on NCI-H460 lung for Cc1c(C#N)c2ccccc2c2nc3ccccc3n12 , please.
Response line: > 100 µM

Prompt line: Observed TGI on NCI-H460 lung for CC(=O)N1CN2C(=O)CCC2c2ccccc21 (configuration not stated) , please.
Response line: > 100 µM

Prompt line: Observed TGI on NCI-H460 lung for CC(=O)O[C@]12CCCCC1C1(O)C(O)CCCCC12 (some centres not stated) , please.
Response line: > 100 µM

Prompt line: Observed TGI on NCI-H460 lung for C=C1[C@H](OC(=O)C(C)C)[C@]23CC4(O)[C@@H]5[C@@]6(C)CCC[C@]57C([C@@H]2C[C@@]1(O)[C@H](O)[C@@H]73)N4C6 , please.
Response line: > 100 µM

Prompt line: Observed TGI on NCI-H460 lung for Cc1nc(-c2ccccc2)c(Cc2ccccc2O)c(=O)[nH]1 , please.
Response line: > 100 µM

Prompt line: Observed TGI on NCI-H460 lung for Nc1cc2c(nnn2C2OC(COCc3ccccc3)C(OCc3ccccc3)C2OCc2ccccc2)c(=O)[nH]1 (configuration not stated) , please.
Response line: 92.3 µM

Prompt line: Observed TGI on NCI-H460 lung for O=C(N/N=C(/COc1ccc(Cl)cc1)N=Cc1cccnc1)c1ccncc1 , please.
Response line: > 100 µM

Prompt line: Observed TGI on NCI-H460 lung for CC(C)(C)OC(=O)CC(NC(=O)OC(C)(C)C)C(=O)N[C@@H]1CCCC[C@H]1C(=O)OCc1ccccc1 (some centres not stated) , please.
Response line: > 100 µM

Prompt line: Observed TGI on NCI-H460 lung for C=[N+](CNC(=O)CNC(=O)C(Cc1ccc([N+](=O)[O-])cc1)NC(=O)OC(C)(C)C)C(=O)CNC(=O)C(Cc1ccc([N+](=O)[O-])cc1)NC(=O)OC(C)(C)C (configuration not stated) , please.
Response line: > 100 µM

Prompt line: Observed TGI on NCI-H460 lung for N=C(N)c1ccc(OCCOCCOc2ccc(C(=N)N)cc2)cc1 , please.
Response line: > 100 µM

Prompt line: Observed TGI on NCI-H460 lung for CN(C)Cc1cc(N=Nc2cccc(Cl)c2)ccc1O , please.
Response line: 26.4 µM

Prompt line: Observed TGI on NCI-H460 lung for CCOC(=O)c1sc2ncn(Cc3cccc(Br)c3)c(=O)c2c1C , please.
Response line: > 100 µM

Prompt line: Observed TGI on NCI-H460 lung for COc1cc(-n2cc(-c3ccc(F)cc3)nc2SCc2ccccc2)cc(OC)c1OC , please.
Response line: > 100 µM

Prompt line: Observed TGI on NCI-H460 lung for Cn1ccc(C(=O)N2CCSC2=S)c(OCc2ccccc2)c1=O , please.
Response line: > 100 µM

Prompt line: Observed TGI on NCI-H460 lung for C=C(C)C1Cc2c(cc(OC)c3c(=O)c4cccc(O)c4oc23)O1 (configuration not stated) , please.
Response line: 62.6 µM

Prompt line: Observed TGI on NCI-H460 lung for CC1=NOC2(C1)C(=O)Nc1ccccc12 (configuration not stated) , please.
Response line: > 100 µM

Prompt line: Observed TGI on NCI-H460 lung for CC(C)(C)n1c(=O)[nH]n(C2NN=Cc3cccc4cccc2c34)c1=O (configuration not stated) , please.
Response line: > 100 µM

Prompt line: Observed TGI on NCI-H460 lung for Nc1ncnc2c1ncn2Cc1ccc(C23CC4CC(CC(C4)C2)C3)c(OCc2cc(F)c(F)cc2F)c1 , please.
Response line: > 100 µM

Prompt line: Observed TGI on NCI-H460 lung for C#CCN(Cc1nc2cc(C(F)(F)F)ccc2nc1-c1ccccc1)c1ccc(OC(F)(F)F)cc1 , please.
Response line: > 100 µM

Prompt line: Observed TGI on NCI-H460 lung for CC(=O)CCc1ccc(OC2OC(COC(=O)c3cc(O)c(O)c(O)c3)C(O)C(O)C2OC(=O)/C=C/c2ccccc2)cc1 (configuration not stated) , please.
Response line: 43.5 µM

Prompt line: Observed TGI on NCI-H460 lung for Fc1ccc(-c2nn3c(-c4ccc(F)c(Cl)c4)nnc3s2)cc1 , please.
Response line: > 50 µM

Prompt line: Observed TGI on NCI-H460 lung for CS(=O)(=O)OC1CN2CCC1CC2 (configuration not stated) , please.
Response line: > 100 µM

Prompt line: Observed TGI on NCI-H460 lung for CCCCCc1nc2c(c3c1CCCC3)CCCC2 , please.
Response line: 30.1 µM

Prompt line: Observed TGI on NCI-H460 lung for CC(C)CCC[C@@H](C)[C@H]1CC[C@H]2[C@@H]3CC[C@H]4C[C@H](N)CC[C@]4(C)[C@H]3CC[C@]12C , please.
Response line: > 100 µM

Prompt line: Observed TGI on NCI-H460 lung for CC(=O)Nc1ccc(/C=C/C(=O)c2ccccc2)cc1 , please.
Response line: 41.6 µM

Prompt line: Observed TGI on NCI-H460 lung for COc1ccc(/C(Cl)=C(/c2ccc(O)cc2)c2ccc(OCCN(C)C)cc2)cc1 , please.
Response line: 26 µM

Prompt line: Observed TGI on NCI-H460 lung for O=Cc1cc([N+](=O)[O-])no1 , please.
Response line: > 100 µM

Prompt line: Observed TGI on NCI-H460 lung for Cc1ccccc1C1=[N+]([O-])c2ccccc2C1=O , please.
Response line: 37.3 µM

Prompt line: Observed TGI on NCI-H460 lung for COc1ccc(/C=C/c2sc3ccccc3[n+]2CCCCI)cc1OC , please.
Response line: > 10 µM

Prompt line: Observed TGI on NCI-H460 lung for O=c1c2ccccc2c(Br)c(Br)c2ccccc12 , please.
Response line: 34.5 µM

Prompt line: Observed TGI on NCI-H460 lung for N#C/C(=N\Nc1ccc(Cl)cc1)C(=O)Nc1cc(-c2ccccc2)nn1-c1ccccc1 , please.
Response line: > 100 µM

Prompt line: Observed TGI on NCI-H460 lung for CCCN1CC=C(c2cc(C(=O)OCC)[nH]c2-c2cc(C)no2)C1=O , please.
Response line: > 100 µM

Prompt line: Observed TGI on NCI-H460 lung for O=S(=O)(N/N=C1\CC2CCC1C2)c1ccccc1 (configuration not stated) , please.
Response line: > 100 µM

Prompt line: Observed TGI on NCI-H460 lung for CCN(CC)c1ccc(/C=C2/C[N+](C)(C)C/C(=C/c3ccc(N(CC)CC)cc3)C2=O)cc1 , please.
Response line: 15 µM

Prompt line: Observed TGI on NCI-H460 lung for C#CCNC(=O)NCCCC(NC(C)=O)C(=O)NCc1ccccc1 (configuration not stated) , please.
Response line: > 100 µM

Prompt line: Observed TGI on NCI-H460 lung for O=C(CC(=O)Nc1cccc(Cl)c1)NNCC(=O)Nc1nnc(-c2ccccc2)s1 , please.
Response line: > 100 µM
